Test system: MOLT-4 leukemia
Assay: NCI-60 one-dose screen, 48 h (100 = growth as untreated, 0 = no growth, -100 = all killed)
Conditions: 10 µM unless noted
About 83,000 compounds went through this panel and 20% of them were active in at least one assay; those are over-represented in the sample as a whole.
observedProperty: growth (%)

compound	observedProperty	unitDescriptor	observedMeasurement
Nc1cc(Br)c(-c2nnc(CCC(=O)c3nc4ccccc4[nH]3)o2)c(Br)c1	growth	%	68.2
COc1c(O)c2c3c(c1OC)-c1ccccc1CC3N(S(=O)(=O)c1ccc(C)cc1)CC2 (configuration not stated)	growth	%	30.7
CCCCCCCC/C=C\CCCCCCCCOc1cccc(CC(=O)NCC[N+]2(C)CCCCC2)c1	growth	%	57
COc1ccc(NC(=O)c2ccc3c(c2)nc(-c2ccc(Cl)cc2)n3-c2cc(C(C)(C)C)[nH]n2)cc1	growth	%	55.1
COc1ccc(OC2=C(C#N)C(=N)N3c4ccccc4Sc4ccccc4C3N2)cc1 (configuration not stated)	growth	%	139
CCCCCCCCCCCCCCn1c2ccccc2c2c3c(c4c5cc(OC)ccc5oc4c21)C(=O)NC3=O	growth	%	123
O=C1CCC(N2C(=O)c3cccc(NCCOCCOCCNC(=O)c4cc5c(o4)C(=O)c4ccccc4C5=O)c3C2=O)C(=O)N1 (configuration not stated)	growth	%	6.06
